# Test system: dopamine uptake
# ASSAY_NOTES: DA (dopamine) uptake inhibition, synaptosomal preparation (striatum)
# Format: biochemical, rat (Male Sprague-Dawley)
# MEASUREMENT_PARAMETERS: rat striatum synaptosomes, 0.1 μM tritiated amine, 37° C., 4 minutes
Structures can show the parent of a compound that is named as a salt.
ENDPOINT_NAME: IC50 (nM)
Give the value, in units of nM, as a plain number.

These recorded examples may help you get a feel for the data.
CC1C[C@H]2c3ccccc3CC[C@H]2CN1Cc1ccccc1 (relative stereo) [Example 71B]    633
COc1ccc2c(c1OC)CCC1C2CN(C)C1Cc1ccccc1 (centres unmarked) [Example 32, hydrochloride]    169
COc1cccc2c1CCC1C(Cc3ccccc3)NCC21 (centres unmarked)    5490

API: value(readout= IC50, system= dopamine uptake, query= COc1ccc2c(c1OC)CCC1C(Cc3ccccc3)NCC21 (centres unmarked) [Example 31, hydrochloride] )
5420

CC1C[C@H]2c3ccccc3CC[C@H]2CN1Cc1ccccc1 (relative stereo) [Example 71A] ?
450

====

# System: 5-HT (serotonin) uptake
# ASSAY_NOTES: 5-HT (serotonin) uptake inhibition, synaptosomal preparation (cortex)
# Assay type: biochemical, rat (Male Sprague-Dawley)
# MEASUREMENT_PARAMETERS: 5-hydroxytryptamine; rat cortex synaptosomes; 0.1 μM tritiated amine; 37° C., 4 minutes
Structures can show the parent of a compound that is named as a salt.
ENDPOINT_NAME: IC50 (nM)
Unit nM implied. Number only.

COc1ccc(C)c2c1CCC1C2CN(C)C1Cc1ccccc1 (stereo not drawn) [Example 38, hydrochloride]    3570
Fc1cccc(CC2NCC3c4ccccc4CCC23)c1 (stereo not drawn) [Example 15, hydrochloride]    15000

Field request: IC50 | item: Cc1cccc(CC2NCC3c4ccccc4CCC23)c1 (stereo not drawn) [Example 11, hydrochloride]
827

Same question, CN1CC2c3ccccc3CCC2C1Cc1cccc(Cl)c1 (single isomer, unassigned) [Example 47, hydrochloride] this time
1260

Ok, now CC1C[C@H]2c3ccccc3CC[C@H]2CN1Cc1ccccc1 (relative stereo) [Example 71A]
2120

What would you report for COc1cccc2c1CCC1C(Cc3ccccc3)NCC21 (stereo not drawn) ?
13100

Please give the result for COc1ccc2c(c1)CCC1C2CN(C)C1Cc1ccccc1 (stereo not drawn) [Example 7] too.
12200

====

# Tested on: 5-HT (serotonin) uptake
# ASSAY_NOTES: 5-HT (serotonin) uptake inhibition, synaptosomal preparation (cortex)
# Format: biochemical, rat (Male Sprague-Dawley)
# MEASUREMENT_PARAMETERS: 5-hydroxytryptamine; rat cortex synaptosomes; 0.1 μM tritiated amine; 37° C., 4 minutes
Structures can show the parent of a compound that is named as a salt.
ENDPOINT_NAME: pIC50
// scale note: pIC50 = -log10(conc_M); give the bare number

Example entries and their recorded answers appear below.
CN1CC2c3ccccc3CCC2C1Cc1ccccc1 (centres unmarked) [Example 9]    5.18
CN1CC2c3ccc4c(c3CCC2C1Cc1cccc(F)c1)OCO4 (centres unmarked)    6.02
CCN1CC2c3cccc(OC)c3CCC2C1Cc1ccccc1 (centres unmarked)    5.84

Next compound, please.
Can you share its pIC50? I mean this compound: COc1cccc2c1CCC1C2CN(C)C1Cc1cccc(F)c1 (centres unmarked) [Example 24, hydrochloride]
5.61
